biological target: Tyrosine-protein phosphatase non-receptor type 1 (Homo sapiens, UniProt P18031); experiment: Inhibition of PTP1B (unknown origin)-mediated pNPP hydrolysis to 4-nitrophenol after 60 mins by spectrophotometric analysis
Sequence (P18031 whole entry): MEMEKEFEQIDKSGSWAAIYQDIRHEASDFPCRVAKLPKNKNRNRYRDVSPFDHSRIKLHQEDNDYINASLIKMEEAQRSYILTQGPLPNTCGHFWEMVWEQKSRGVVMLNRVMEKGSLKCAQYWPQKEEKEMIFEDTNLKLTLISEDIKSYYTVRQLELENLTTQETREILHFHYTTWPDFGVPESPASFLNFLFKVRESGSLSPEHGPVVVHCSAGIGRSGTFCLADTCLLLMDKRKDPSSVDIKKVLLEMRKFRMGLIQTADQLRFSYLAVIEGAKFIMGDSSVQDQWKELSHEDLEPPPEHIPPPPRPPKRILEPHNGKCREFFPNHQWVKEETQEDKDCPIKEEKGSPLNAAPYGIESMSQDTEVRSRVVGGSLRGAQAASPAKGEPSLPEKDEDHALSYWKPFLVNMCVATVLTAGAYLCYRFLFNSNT
pKi: −log10 of the molar value.
MEASURED METRIC: pKi

Reported pKi for COc1ccc(CN(Cc2ccc(OC)cc2)S(=O)(=O)C(Cc2ccc(NC(=O)C(=O)O)cc2)c2nc3ccccc3o2)cc1 (stereo unspecified) was 4.85

Reported pKi for O=C(O)COc1ccc(CC(c2nc3ccccc3o2)S(=O)(=O)Nc2ccc(F)cc2)cc1O (stereo unspecified) was 4.18

Reported pKi for CN(c1ccc(F)cc1)S(=O)(=O)C(Cc1ccc(NC(=O)C(=O)O)cc1)c1nc2ccccc2[nH]1 (stereo unspecified) was 3.90

Reported pKi for CC(C)(C)c1ccc(CN(Cc2ccc(C(C)(C)C)cc2)S(=O)(=O)C(Cc2ccc(NC(=O)C(=O)O)cc2)c2nc3ccccc3o2)cc1 (stereo unspecified) was 4.83

(I) O=C(O)C(=O)Nc1ccc(C[C@H](c2nc3ccccc3o2)S(=O)(=O)Nc2ccc(F)cc2)cc1
(II) O=C(O)C(=O)Nc1ccc(C[C@H](c2nc3ccccc3o2)S(=O)(=O)N(Cc2ccc(Cl)cc2)Cc2ccc(Cl)cc2)cc1
Select one. Lower pKi: I or II Pick one and reply with its label.
I
